Target: human cathepsin V (Homo sapiens)
Construct: purchased Calbiochem
Sequence (O60911 114-334): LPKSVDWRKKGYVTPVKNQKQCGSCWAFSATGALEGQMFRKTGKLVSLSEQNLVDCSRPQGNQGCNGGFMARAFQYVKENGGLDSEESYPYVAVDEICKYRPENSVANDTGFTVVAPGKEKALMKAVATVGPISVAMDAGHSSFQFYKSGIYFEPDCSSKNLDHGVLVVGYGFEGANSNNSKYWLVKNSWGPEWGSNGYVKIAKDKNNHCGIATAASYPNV
Assay: human cathepsin V enzyme inhibitor (selectivity) assay
Format: biochemical
pIC50: −log10 of the molar value.
Measured property: pIC50

Ask: Using human cathepsin V (Homo sapiens) as the test system, report measured pIC50 of CNC(=O)O[C@H]1CCc2ccc(N3CCN(C4COC4)CC3)cc2[C@@H]1NC(=O)c1ccc(F)cc1 .
Result: < 4.00

Origin of measurements: patent US8227468B2
